FYI, the data here is from patent US11161844B2.

# Study system: LRRK2, WT (GST-tagged truncated LRRK2) (Homo sapiens (Human), UniProt Q5S007)
# Sequence (Q5S007 970-2527): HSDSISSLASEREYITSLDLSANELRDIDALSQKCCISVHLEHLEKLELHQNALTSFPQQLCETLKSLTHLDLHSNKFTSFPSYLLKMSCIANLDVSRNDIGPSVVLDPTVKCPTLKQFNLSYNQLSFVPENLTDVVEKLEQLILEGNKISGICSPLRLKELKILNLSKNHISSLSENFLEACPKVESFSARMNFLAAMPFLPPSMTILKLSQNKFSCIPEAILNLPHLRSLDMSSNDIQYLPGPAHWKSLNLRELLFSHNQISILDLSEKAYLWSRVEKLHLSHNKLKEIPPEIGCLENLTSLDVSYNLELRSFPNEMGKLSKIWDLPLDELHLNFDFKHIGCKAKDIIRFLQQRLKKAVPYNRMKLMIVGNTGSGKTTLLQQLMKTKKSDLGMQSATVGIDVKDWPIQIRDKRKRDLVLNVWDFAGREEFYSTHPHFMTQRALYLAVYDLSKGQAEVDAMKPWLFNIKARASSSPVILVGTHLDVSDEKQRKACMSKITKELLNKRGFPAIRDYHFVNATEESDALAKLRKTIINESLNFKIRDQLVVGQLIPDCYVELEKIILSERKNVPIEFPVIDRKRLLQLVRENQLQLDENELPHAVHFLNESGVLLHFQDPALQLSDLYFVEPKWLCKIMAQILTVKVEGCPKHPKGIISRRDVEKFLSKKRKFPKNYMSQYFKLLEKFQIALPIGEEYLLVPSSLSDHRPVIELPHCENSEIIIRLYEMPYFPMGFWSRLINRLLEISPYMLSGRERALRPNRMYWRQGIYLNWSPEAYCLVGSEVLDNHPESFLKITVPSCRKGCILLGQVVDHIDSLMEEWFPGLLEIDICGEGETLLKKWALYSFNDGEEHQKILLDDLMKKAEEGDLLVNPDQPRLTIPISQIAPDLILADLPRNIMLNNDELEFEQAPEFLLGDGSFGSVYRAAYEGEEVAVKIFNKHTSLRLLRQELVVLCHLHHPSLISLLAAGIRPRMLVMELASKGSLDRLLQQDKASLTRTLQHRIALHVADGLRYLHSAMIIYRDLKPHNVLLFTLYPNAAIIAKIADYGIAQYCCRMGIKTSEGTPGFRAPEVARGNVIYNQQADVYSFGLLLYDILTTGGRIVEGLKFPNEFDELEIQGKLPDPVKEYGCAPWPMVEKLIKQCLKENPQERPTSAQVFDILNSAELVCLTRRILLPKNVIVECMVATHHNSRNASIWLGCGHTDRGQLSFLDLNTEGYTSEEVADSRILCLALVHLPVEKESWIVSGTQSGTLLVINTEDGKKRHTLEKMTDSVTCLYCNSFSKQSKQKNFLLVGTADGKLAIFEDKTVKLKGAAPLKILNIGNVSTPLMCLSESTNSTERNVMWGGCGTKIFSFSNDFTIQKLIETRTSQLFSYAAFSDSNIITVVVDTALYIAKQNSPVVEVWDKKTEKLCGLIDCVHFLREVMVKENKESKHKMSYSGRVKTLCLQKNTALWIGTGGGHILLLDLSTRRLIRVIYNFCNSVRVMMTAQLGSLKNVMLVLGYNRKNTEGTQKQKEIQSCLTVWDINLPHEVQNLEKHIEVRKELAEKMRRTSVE
# Protocol description: LRRK2 kinase assay (Lantha Screen), wild type
# Experimental setup: 100 nM LRRKtide, 1 mM ATP, 2 μg/mL enzyme; geometric mean of 2-4 determinations unless otherwise indicated
Measured quantity: IC50 (nM)

N#CC[C@@H]1C[C@H](n2c3c(cnc4ccc(Cl)cc43)nc2[C@H]2CC[C@@H](F)CC2)CCO1 [Example 28]; 9.71

I: CC1(C)CC(n2c(C3CCC(F)C3)nc3cnc4ccc(C#N)cc4c32)CCO1 (stereo not shown) [Example 40]
II: CO[C@H]1C[C@H](c2nc3cnc4ccc(C#N)cc4c3n2C2CCOCC2(F)F)C1 (stereo partly shown) [Example 51]
III: CC1(C)CC(n2c(C3CCC(F)C3)nc3cnc4ccc(C#N)cc4c32)CCO1 (stereo not shown) [Example 41]
Task for the reader: rank each entry by its IC50, from the minimum upward. Lab note: record answer as labels in requested order.
I, III, II
(I: 7.14 nM, III: 64.1 nM, II: 272 nM)

###

# Study system: mutant G2019S LRRK2 (Homo sapiens (Human), UniProt Q5S007, G2019S)
# Sequence (Q5S007 970-2527 G2019S): as the sequence (Q5S007 970-2527) above, with G1050S counted along it
# Protocol description: LRRK2 kinase assay (Lantha Screen), mutant G2019S
# Experimental setup: 100 nM LRRKtide, 1 mM ATP, 2 μg/mL enzyme; single determination unless otherwise indicated
# Experimental: LRRK2 kinase activity was measured using Lantha Screen technology from Invitrogen. […] Upon completion, the assay was stopped and detected with a terbium labeled anti-phospho-ERM antibody (Invitrogen, cat #PR8975A). […] After an incubation of 1 hour at room temperature, the plate was read on an Envision with an excitation wavelength of 340 nm and a reading emission at both 520 nm and 495 nm. […] Inhibition of mutant G2019S LRRK2 (Invitrogen cat #PV4881) was measured in the exact same method. […]
pIC50: −log10 of the molar value.
Measured quantity: pIC50

a: CN1CC[C@@H](n2c3c(cnc4ccc(C#N)cc43)nc2[C@H]2C[C@@H](F)C2)C1
b: CN1CC(n2c(C3CCC(F)C3)nc3cnc4ccc(C#N)cc4c32)C(F)(F)C1 (centres unmarked) [Example 60]
c: CN1CC[C@@H](n2c(C3CCC(F)C3)nc3cnc4ccc(C#N)cc4c32)C1 (some centres unmarked) [Example 32]
Could you please sort these 3 entries by pIC50 from high to low? List the labels according to the requested ordering.
a, c, b

a: C[C@@H]1C[C@H](n2c3c(cnc4ccc(C#N)cc43)nc2[C@H]2CC[C@@H](F)CC2)CCO1
b: C[C@@H]1C[C@H](n2c(C3CC(C)(F)C3)nc3cnc4ccc(Cl)cc4c32)CCO1 (some centres unmarked) [Example 5]
Out of a and b , name the one with the higher pIC50. Your answer should be the label of the entry you select.
a
(a: 8.08, b: 7.76)

I: C[C@@H]1C[C@H](n2c(C3CCC(F)(F)CC3)nc3cnc4ccc(C#N)cc4c32)CCO1
II: C[C@@H]1C[C@H](n2c(C3CC(C)(F)C3)nc3cnc4ccc(Cl)cc4c32)CCO1 (some centres unmarked) [Example 3]
III: CN1CC(n2c(C3CCC(F)C3)nc3cnc4ccc(C#N)cc4c32)C(F)(F)C1 (centres unmarked) [Example 59]
IV: CN1CC(n2c(C3CCC(F)C3)nc3cnc4ccc(C#N)cc4c32)C(F)(F)C1 (centres unmarked) [Example 58]
Place the items in sequence of falling pIC50. Write the labels, ordered according to the request.
II, I, IV, III
(II: 8.26, I: 7.95, IV: 7.67, III: 6.85)

P: C[C@@H]1C[C@H](n2c3c(cnc4ccc(Cl)cc43)nc2[C@H]2C[C@@H](F)C2)CCO1
Q: C[C@@H]1C[C@H](n2c(C3CCCO3)nc3cnc4ccc(Cl)cc4c32)CCO1 (some centres unmarked)
Could you please tell me which of these two has the higher pIC50: P or Q ? Use the label to indicate which entry you chose.
P
(P: 8.26, Q: 7.95)

###

# Study system: LRRK2, WT (GST-tagged truncated LRRK2) (Homo sapiens (Human), UniProt Q5S007)
# Protocol description: LRRK2 kinase assay (Lantha Screen), wild type
# Experimental setup: 100 nM LRRKtide, 1 mM ATP, 2 μg/mL enzyme; geometric mean of 2-4 determinations unless otherwise indicated
Measured quantity: IC50 (nM)

P: C[C@@H]1C[C@H](n2c(C3COC3)nc3cnc4ccc(Cl)cc4c32)CCO1
Q: CN1CC(n2c(C3CCC(F)C3)nc3cnc4ccc(C#N)cc4c32)C(F)(F)C1 (stereo not shown) [Example 64]
Which gives the smaller IC50 number: P or Q ? Write the label of whichever entry you select.
P

1: CN1CC[C@@H](n2c3c(cnc4ccc(C#N)cc43)nc2[C@H]2C[C@@](C)(F)C2)C1
2: CN1CC[C@@H](n2c(C3CCC(F)C3)nc3cnc4ccc(C#N)cc4c32)C1 (stereo partly shown) [Example 33]
Given 1 and 2 , report the one with the higher recorded IC50. Answer by quoting the chosen item's label.
1

###

# Study system: mutant G2019S LRRK2 (Homo sapiens (Human), UniProt Q5S007, G2019S)
# Protocol description: LRRK2 kinase assay (Lantha Screen), mutant G2019S
# Experimental setup: 100 nM LRRKtide, 1 mM ATP, 2 μg/mL enzyme; single determination unless otherwise indicated
# Experimental: LRRK2 kinase activity was measured using Lantha Screen technology from Invitrogen. […] Upon completion, the assay was stopped and detected with a terbium labeled anti-phospho-ERM antibody (Invitrogen, cat #PR8975A). […] After an incubation of 1 hour at room temperature, the plate was read on an Envision with an excitation wavelength of 340 nm and a reading emission at both 520 nm and 495 nm. […] Inhibition of mutant G2019S LRRK2 (Invitrogen cat #PV4881) was measured in the exact same method. […]
Measured quantity: IC50 (nM)

Past entries and their recorded results:
CN1CC[C@@H](n2c([C@H]3CCOC3)nc3cnc4ccc(C#N)cc4c32)C1 [Example 25]; 80
C[C@@H]1C[C@H](n2c(C3CCC(F)C3)nc3cnc4ccc(C#N)cc4c32)CCO1 (single isomer, unassigned) [Example 13]; 3.84

P: C[C@@H]1C[C@H](n2c3c(cnc4ccc(C#N)cc43)nc2[C@H]2C[C@@](C)(F)C2)CCO1 [Example 18]
Q: C[C@@H]1C[C@H](n2c3c(cnc4ccc(Cl)cc43)nc2[C@H]2CC[C@@H](F)CC2)CCO1 [Example 1]
// returns P or Q , whichever has the lower IC50 // return label of chosen record
Q
(Q: 4.75 nM, P: 8.4 nM)

1: CC1(C)CC(n2c(C3CCC(F)C3)nc3cnc4ccc(C#N)cc4c32)CCO1 (stereo not drawn) [Example 40]
2: C[C@@H]1C[C@H](n2c3c(cnc4ccc(C#N)cc43)nc2[C@H]2C[C@@H](F)C2)CCO1 [Example 19]
I need your help: which of the pair 1 , 2 has higher IC50? Please reply using the label of the selected record.
2

###

# Study system: LRRK2, WT (GST-tagged truncated LRRK2) (Homo sapiens (Human), UniProt Q5S007)
# Protocol description: LRRK2 kinase assay (Lantha Screen), wild type
# Experimental setup: 100 nM LRRKtide, 1 mM ATP, 2 μg/mL enzyme; geometric mean of 2-4 determinations unless otherwise indicated
pIC50: −log10 of the molar value.
Measured quantity: pIC50

Observe how each entry below is paired with its result.
N#CC[C@@H]1C[C@H](n2c(C3CC(F)(F)C3)nc3cnc4ccc(Cl)cc4c32)CCO1 (single isomer, unassigned); 7.92
N#CCC1CC(n2c([C@H]3CCOC3)nc3cnc4ccc(Cl)cc4c32)CCO1 (stereo partly drawn); 8.22
CC1(C)CC(n2c(C3CCC(F)C3)nc3cnc4ccc(C#N)cc4c32)CCO1 (stereo not drawn) [Example 39]; 8.33
C[C@@H]1C[C@H](n2c([C@H]3CCOC3)nc3cnc4ccc(C#N)cc4c32)CCO1; 7.79
CN1CC(n2c(C3CCC(F)C3)nc3cnc4ccc(C#N)cc4c32)C(F)(F)C1 (stereo not drawn) [Example 60]; 7.24

1: C[C@@H]1C[C@H](n2c(C3CCOCC3)nc3cnc4ccc(Cl)cc4c32)CCO1
2: C[C@@H]1C[C@H](n2c(C3CCC(F)C3)nc3cnc4ccc(F)cc4c32)CCO1 (stereo partly drawn) [Example 37]
Hi team, can someone confirm which has the larger pIC50: 1 or 2 ? Thanks. Provide the label of your selected option as the answer.
1
(1: 7.79, 2: 6.70)

###

# Study system: mutant G2019S LRRK2 (Homo sapiens (Human), UniProt Q5S007, G2019S)
# Protocol description: LRRK2 kinase assay (Lantha Screen), mutant G2019S
# Experimental setup: 100 nM LRRKtide, 1 mM ATP, 2 μg/mL enzyme; single determination unless otherwise indicated
pIC50: −log10 of the molar value.
Measured quantity: pIC50

Consider the following illustrative entries.
C[C@@H]1C[C@H](n2c([C@H]3CCOC3)nc3cnc4ccc(Cl)cc4c32)CCO1 [Example 4]; 8.13
C[C@@H]1C[C@H](n2c(C3CCC(F)(F)CC3)nc3cnc4ccc(Cl)cc4c32)CCO1 [Example 8]; 7.92
C[C@@H]1C[C@H](n2c([C@H]3CCOC3)nc3cnc4ccc(C#N)cc4c32)CCO1 [Example 16]; 7.97
C[C@@H]1C[C@H](n2c(C3CCC(F)C3)nc3cnc4ccc(C#N)cc4c32)CCO1 (stereo partly drawn) [Example 14]; 7.97
CN1CC(n2c(C3CCC(F)C3)nc3cnc4ccc(C#N)cc4c32)C(F)(F)C1 (stereo not drawn) [Example 57]; 8.23

1: N#CCC1CC(n2c([C@H]3CCOC3)nc3cnc4ccc(Cl)cc4c32)CCO1 (stereo partly drawn) [Example 30]
2: CC1(C)CC(n2c(C3CCC(F)C3)nc3cnc4ccc(C#N)cc4c32)CCO1 (stereo not drawn) [Example 42]
3: C[C@@H]1C[C@H](n2c(C3CCCCC3(F)F)nc3cnc4ccc(C#N)cc4c32)CCO1 (stereo partly drawn) [Example 20]
4: C[C@@H]1C[C@H](n2c(C3CCOCC3)nc3cnc4ccc(Cl)cc4c32)CCO1 [Example 7]
Ascending by pIC50, please: list the molecules accordingly. Put the labels in the order asked and list them.
2, 4, 3, 1
